# Test details: Pharmacokinetics, single oral gavage, 2 formulations, Wistar and Sprague-Dawley rats
# Assay type: in vivo
# Conditions: female, Sprague-Dawley, rat, plasma, po, 75 mg/kg, Formulation 1, S-D (Female)
Measured metric: AUC(0-inf) (ng·h/mL)
One number for each entry, in ng·h/mL.

Enquiry: Answer with the recorded AUC(0-inf) for the compound listed here: Cc1cc(Cl)c(COc2cccc3c(-n4cc(F)cn4)cc(C)nc23)c(Cn2cccc(C#N)c2=O)n1 [CFMQ]
Return: 14300

* * *

# Test details: Pharmacokinetics, single oral gavage, Yucatan mini-pig
# Format: in vivo, female Yucatan Miniature Swine
# Conditions: female, Yucatan, pig (miniature swine), plasma; PO 10 mg/kg, 12 hr; read-out: Average Concentration of HGT3711
Measured metric: concentration at 12 hr (ng/mL)
Numbers only, in ng/mL.

Enquiry: Given "Cc1cc(Cl)c(COc2cccc3c(-n4cc(F)cn4)cc(C)nc23)c(Cn2cccc(C#N)c2=O)n1" , respond with its concentration at 12 hr.
Return: 112
